Test system: HCT-15 colon
experimentSummary: NCI tumour cell line growth inhibition, 48 h
measuredProperty: TGI

Some solved cases for reference:
compound="CSc1nc2c(ncn2C2OCC(O)C(O)C2O)c(=O)n1C (stereo unspecified)" measuredproperty=TGI result="> 100 µM"
compound=O=C1CC(=O)NC(=NNS(=O)(=O)c2ccccc2)N1 measuredproperty=TGI result="> 100 µM"
compound=OCc1c[te]c(-c2ccccc2)c1 measuredproperty=TGI result="> 100 µM"

Item COC(=O)C1=C(OC(=O)/C=C/c2ccc(Cl)cc2)C(C(=O)OC)[C@@]2(O)[C@@H](C(=O)OC)[C@H](C)C[C@@H]1[C@@H]2C(=O)OC (stereo partly specified) has what recorded TGI?
57 µM

Item CC1CCC2(CC1)NC1=C(CC(C)CC1)C1=C2CC(C)CC1 (stereo unspecified) has what recorded TGI?
45.9 µM

Item `C/C(=N\Nc1nc2cccnc2s1)c1ccccn1` has what recorded TGI?
21.5 µM

---

Test system: SK-OV-3 ovarian
experimentSummary: NCI tumour cell line growth inhibition, 48 h
measuredProperty: GI50

compound=O=C(Nc1n[nH]c2nnc(-c3cccnc3)cc12)C1CC1 result="621 nM"

Now examine the next entry.
Item `COc1cc(C(=O)N/N=C/c2ccc(N(C)C)cc2)cc(OC)c1OC` has what recorded GI50?
478 nM

---

System: NCI/ADR-RES ovarian
experimentSummary: NCI tumour cell line growth inhibition, 48 h; in the data active = GI50 below about 0.43 µM; inactive = the rest
// one of y for active, n for inactive, no free text

compound=CCCCCCCCn1ccc2cc(NC(=O)Cn3cc(CN4CCCCC4)nn3)ccc21 targetentity="NCI/ADR-RES ovarian" group=n
compound=O=C(Nc1ccc(/C=C/c2ccc(NC(=O)c3cc(S(=O)(=O)O)c4cccnc4c3O)cc2S(=O)(=O)O)c(S(=O)(=O)O)c1)c1cc(S(=O)(=O)O)c2cccnc2c1O targetentity="NCI/ADR-RES ovarian" group=n
compound=Cc1ccc(C)c(/C=C2\CN(C(=O)OC(C)(C)C)C/C(=C\c3cc(C)ccc3C)C2=O)c1 targetentity="NCI/ADR-RES ovarian" group=n

Which outcome was entered for the compound `CN1C/C=C/CCOc2cccc(c2)-c2ccnc(n2)Nc2cccc(c2)C1` in this test?
y

Which outcome was entered for the compound `COc1ccc(Nc2cc(C)nc(NCCCNc3ccnc4cc(Cl)ccc34)n2)cc1` in this test?
n

Which outcome was entered for the compound `Cc1ccc(NC(=O)c2sc3nc4c(cc3c2N)C(=O)CCC4)cc1C` in this test?
n

Which outcome was entered for the compound `O=c1oc2ccc(Br)cc2c(=O)n1-c1ccc(I)cc1F` in this test?
y

Which outcome was entered for the compound CCCCCCCCC(=O)OCC(CS[As](C)C)OC(=O)CCCCCCCC (centres undefined) in this test?
n

Which outcome was entered for the compound `COc1cc([C@@H]2C[C@H]2c2cc(SC)n[nH]2)cc(OC)c1OC` in this test?
n

---

System: COLO 205 colon
experimentSummary: NCI tumour cell line growth inhibition, 48 h
measuredProperty: TGI

compound=O=C(Nc1ccc(/C=C/c2ccc(NC(=O)c3cc(S(=O)(=O)O)c4cccnc4c3O)cc2S(=O)(=O)O)c(S(=O)(=O)O)c1)c1cc(S(=O)(=O)O)c2cccnc2c1O result="> 57.5 µM"
compound="COC1(O)c2cccc(Cl)c2C(=O)N1C1(C(N)=O)CCCCC1 (stereo not given)" result="> 100 µM"
compound="NNC(=O)N/N=C1\\C(=O)N(c2ccc(Cl)c(Cl)c2)C(=O)C(=O)C1c1nc2ccccc2s1 (stereo not given)" result="> 100 µM"

Item CC1=CC(N2C(=O)C(C)=CC2O)NC1=O (stereo not given) has what recorded TGI?
> 100 µM

---

Tested on: SR leukemia
experimentSummary: NCI tumour cell line growth inhibition, 48 h; in the data active = GI50 below about 0.43 µM; inactive = the rest
// one of active, inactive, no free text

compound=COc1ccc(/C=C/C(=O)c2ccc(OC)c(OC)c2)cc1O group=active

Which outcome was entered for the compound `CCCCCCCCn1ccc2cc(NC(=O)Cn3cc(CN4CCCCC4)nn3)ccc21` in this test?
inactive

Which outcome was entered for the compound `NC(N)=N/N=C/c1ccc(-c2ccc(-c3cc(Cl)cc(Cl)c3)s2)cc1` in this test?
active

Which outcome was entered for the compound NCC1OC(OC2C(CO)OC(OC3C(O)C(N)CC(N)C3OC3OC(CO)C(O)CC3N)C2O)C(N)C(O)C1OC1OC(CO)C(O)C(O)C1O (configuration not stated) in this test?
inactive

Which outcome was entered for the compound `Cc1ccc(NC(=O)c2sc3nc4c(cc3c2N)C(=O)CCC4)cc1C` in this test?
inactive

Which outcome was entered for the compound `COc1ccc(/C=C2\C=C(c3ccccc3)N(CCc3ccccc3)C2=O)cc1OC` in this test?
inactive

Which outcome was entered for the compound CCN(CC)C1CCC(Nc2c(C(C)=O)cnc3ccc(-c4ccc(O)c(Cl)c4)cc23)CC1 (configuration not stated) in this test?
active

Which outcome was entered for the compound `O=C(Nc1ccc(/C=C/c2ccc(NC(=O)c3cc(S(=O)(=O)O)c4cccnc4c3O)cc2S(=O)(=O)O)c(S(=O)(=O)O)c1)c1cc(S(=O)(=O)O)c2cccnc2c1O` in this test?
active

Which outcome was entered for the compound `Cc1cc(N(CCCl)CCCl)ccc1C=Nc1ccc2ccccc2c1` in this test?
inactive

Which outcome was entered for the compound `COc1cc2c(cc1Nc1nc(Nc3cccc(F)c3C(N)=O)c3cc[nH]c3n1)N(C(=O)CN1CCN(C(C)C)CC1)CC2` in this test?
inactive

Which outcome was entered for the compound CCCCCCCCC(=O)OCC(CS[As](C)C)OC(=O)CCCCCCCC (configuration not stated) in this test?
inactive

Which outcome was entered for the compound N#C[Se]CCCNS(=O)(=O)C1CC2C=CC1C2 (configuration not stated) in this test?
inactive

---

Tested on: NCI-H23 lung
experimentSummary: NCI tumour cell line growth inhibition, 48 h
measuredProperty: TGI

Some solved cases for reference:
compound=Cc1nnc(N)nc1/C=C/c1c(O)ccc2ccccc12 measuredproperty=TGI result="> 100 µM"
compound=CN(Cc1cc(Cl)cc(Cl)c1O)Cc1c(O)ccc2ccccc12 measuredproperty=TGI result="33.5 µM"
compound=OCc1ccc(N2CCc3ccccc3C2)cc1Cl measuredproperty=TGI result="44 µM"
compound=CCN(CC)Cc1c(/C=C\c2cc(OC)c(OC)c(OC)c2)ccc(OC)c1O measuredproperty=TGI result="14.3 µM"

NCI-H23 lung / TGI / `CN1CCC2(CC1)C(=NC1CCCCC1)NC(=S)N2c1ccccc1` : value?
> 100 µM

NCI-H23 lung / TGI / `COc1ccc2nc3ccc(OC)cc3c(SCc3ccccc3)c2c1` : value?
> 100 µM

NCI-H23 lung / TGI / CC(OC(=O)C(CC(=O)OC(C)(C)C)NC(=O)OC(C)(C)C)C(=O)OCc1ccccc1 (configuration not stated) : value?
> 100 µM

---

Tested on: HCC-2998 colon
experimentSummary: NCI tumour cell line growth inhibition, 48 h; in the data active means GI50 below about 0.43 µM; inactive means the rest
// one of active, inactive, no free text

compound="Clc1cc(Cl)cc(N2N=C(c3cccc(Nc4ccncc4)c3)CC2c2ccc3c(c2)OCO3)c1 (stereo unspecified)" group=inactive
compound=COc1ccc(/C=C2\C=C(c3ccccc3)N(CCc3ccccc3)C2=O)cc1OC group=inactive
compound=COc1ccc(Nc2cc(C)nc(NCCCNc3ccnc4cc(Cl)ccc34)n2)cc1 group=inactive

Could you now consider this next compound?
Which outcome was entered for the compound `COc1ccc(-n2ccnc2-c2cc(OC)c(OC)c(OC)c2)cc1` in this test?
inactive

---

Tested on: SK-OV-3 ovarian
experimentSummary: NCI tumour cell line growth inhibition, 48 h
TGI for assorted compounds

Some solved cases for reference:
compound=O=C(O)c1ccc(C(=O)O)c(C(=O)Nc2ccc3c(c2)C(=O)c2ccccc2-3)c1 targetentity="SK-OV-3 ovarian" result="> 100 µM"
compound=Cc1cc(S(=O)(=O)/N=C(/[N-]S(=O)(=O)c2ccc(Cl)cc2)[n+]2ccc(N(C)C)cc2)c(SCC(=O)O)cc1Cl targetentity="SK-OV-3 ovarian" result="> 100 µM"
compound=CC(C)(C)c1cc2c(O)c(c1)Cc1cc(C(C)(C)C)cc(c1O)Cc1cc(C(C)(C)C)cc(c1O)Cc1cc(C(C)(C)C)cc(c1O)Cc1cc(C(C)(C)C)cc(c1O)Cc1cc(C(C)(C)C)cc(c1O)Cc1cc(C(C)(C)C)cc(c1O)Cc1cc(C(C)(C)C)cc(c1O)C2 targetentity="SK-OV-3 ovarian" result="> 50 µM"
compound=O=C(CCCl)NNC1=NCCCN1 targetentity="SK-OV-3 ovarian" result="> 100 µM"
compound="O=C(CNC(c1ccccc1)(c1ccccc1)c1ccccc1)NC1CCCCC1NC(=O)CNC(c1ccccc1)(c1ccccc1)c1ccccc1 (stereo unspecified)" targetentity="SK-OV-3 ovarian" result="> 100 µM"

Now examine the next entry.
SK-OV-3 ovarian / TGI / `COc1cc(-c2c(C#N)c(N)nc(N3CCOCC3)c2C#N)cc(OC)c1OC` : value?
> 100 µM
